- System: MOLM-13
- Parameters: species or system AML cell lines (8); Primary HTS, single concentration about 10 uM, Cell Titer Glo viability; log10 luminescence, per cent inhibition relative to cycloheximide control
- conditions-used: 72 h, relative to cycloheximide control, log10 luminescence; inhibitor
Assignment: determine reported MOLM-13 %inh for the given compounds.
Numbers only, in %.

Observe how each entry below is paired with its result.
[[record]]
chem_smiles = "Nc1c(C(=O)c2cccc(OC[C@H](O)CO)c2)cnn1-c1ccc(F)cc1"
experimental_target = "MOLM-13"
measured = 0.004587

[[record]]
chem_smiles = "COc1ccc(-c2nn3ncccc3c2-c2ccnc(Nc3ccc(Cl)c(C(F)(F)F)c3)n2)cc1"
experimental_target = "MOLM-13"
measured = -0.8658

[[record]]
chem_smiles = "CC(C)c1ccc(-c2cc(-c3c[nH]nc3-c3ccccn3)ccn2)cc1"
experimental_target = "MOLM-13"
measured = 2.021


Give measured MOLM-13 %inh for every item shown.
1. Cn1cc(C2=C(c3cn(C)c4cc(C(=O)O)ccc34)C(=O)NC2=O)c2ccccc21
2. CN(c1ccc(NC(=O)Nc2c(Cl)cccc2Cl)cc1)c1ccnc(Nc2cccc(CS(C)(=O)=O)c2)n1
3. O=[N+]([O-])c1ccc2c(c1)C(c1ccccc1Cl)=Nc1cn[nH]c1N2
4. NC(=O)Cc1ccccc1Oc1nccc(-c2c(-c3ccc(F)cc3)ncn2C2CCNCC2)n1

RESULT:
4.437
85.25
-2.48
-3.279

* * *

- System: M07e
- Design: species or system AML cell lines (8); Primary HTS, single concentration about 10 uM, Cell Titer Glo viability; log10 luminescence, per cent inhibition relative to cycloheximide control
- conditions-used: 72 h, relative to cycloheximide control, log10 luminescence; inhibitor
property-measured: M07e %inh (%)
One number for each entry, in %.

[[record]]
compound = "COc1cc(Nc2ncc(-c3ccccc3)o2)cc(OC)c1 [SJ000573115-1, U21834/32/1]"
measured = 1.992

[[record]]
compound = "COCC1=C(C(=O)O)N2C(=O)[C@@H](NC(=O)/C(=N\\OC)c3csc(N)n3)[C@H]2SC1 [SJ000312312-2]"
measured = -1.66

[[record]]
compound = "O=C1NC(=O)C(c2ccc(Cl)cc2)=C1Nc1ccc(Cl)c(C(=O)O)c1 [SJ000573148-1, DH98298-170B2]"
measured = -2.934

[[record]]
compound = "Nc1nc(=O)n([C@@H]2CS[C@H](CO)O2)cc1F [SJ000556750-1, EMTRICITABINE]"
measured = -0.1929


Give measured M07e %inh for every item shown.
1. Cn1cc(C2=C(c3c4n(c5ccccc35)CCCC4)C(=O)NC2=O)c2ccccc21 [SJ000580963-1]
2. CN(c1ccc(NC(=O)Nc2c(Cl)cccc2Cl)cc1)c1ccnc(Nc2cccc(CS(C)(=O)=O)c2)n1 [SJ000573099-1, U17983/31/1]
3. CC(=O)[C@H]1CC[C@H]2[C@@H]3CC=C4C[C@@H](O)CC[C@]4(C)[C@H]3CC[C@]12C [SJ000281777-6, PREGNENOLONE]

RESULT:
29.09
50.22
1.706

* * *

- System: ML2
- test-method-notes: Secondary dose-response HTS, Cell Titer Glo
- Assay type: cell-based, human
- conditions-used: Homo sapiens; secondary high-throughput screen; ML-2; read-out: average effective concentration, ML-2
property-measured: EC50

Observe how each entry below is paired with its result.
[[record]]
chem_smiles = "CCC(C)(C)C(=O)O[C@H]1C[C@@H](C)C=C2C=C[C@H](C)[C@H](CC[C@@H]3C[C@@H](O)CC(=O)O3)[C@H]21"
property_measured = "EC50"
measured = "> 10 µM"

[[record]]
chem_smiles = "CC(=O)Nc1ccc(C(=O)Nc2ccccc2N)cc1"
property_measured = "EC50"
measured = "> 10 µM"


QUERY: # EC50 lookup, item `Cn1c(Nc2ccc(C(F)(F)F)cc2)nc2cc(Oc3ccnc(-c4ncc(C(F)(F)F)[nH]4)c3)ccc21`
RESULT: > 10 µM

* * *

- Tested on: U937
- test-method-notes: cells
- Parameters: species or system AML cell lines (8); Secondary HTS, 10-point dose-response in triplicate, Cell Titer Glo viability, four-parameter fit EC50
- conditions-used: Homo sapiens, U-937, 72 h, read-out: U937
pEC50: −log10 of the molar value.
property-measured: pEC50

Observe how each entry below is paired with its result.
[[record]]
molecule = "O=c1cc(N2CCOCC2)oc2c1ccc1ccccc12"
property_measured = "pEC50"
measured = "< 5.00"

[[record]]
molecule = "CC(C)=CCC/C(C)=C/CC/C(C)=C/CSc1ccccc1C(=O)O"
property_measured = "pEC50"
measured = "< 5.00"

[[record]]
molecule = "Cn1c(=O)n(-c2ccc(C(C)(C)C#N)cc2)c2c3cc(-c4cnc5ccccc5c4)ccc3ncc21"
property_measured = "pEC50"
measured = "< 5.00"

[[record]]
molecule = "CC[C@H](C)C(=O)O[C@H]1CCC=C2C=C[C@H](C)[C@H](CC[C@@H]3C[C@@H](O)CC(=O)O3)[C@H]21"
property_measured = "pEC50"
measured = "< 5.00"

[[record]]
molecule = "CCOc1cc(N2CCC(O)CC2)ccc1Nc1ncc2c(n1)N(C)c1ccccc1C(=O)N2C"
property_measured = "pEC50"
measured = "< 5.00"


Give measured pEC50 for every item shown.
1. O=c1cc(N2CCOCC2)oc2c(-c3cccc4c3sc3ccccc34)cccc12
2. Nc1nc(=O)n([C@H]2C[C@H](O)[C@@H](CO)O2)cc1F
3. O=C(CCN1CCN(C(=O)OCc2cc(Cl)cc(Cl)c2)CC1)c1ccc2[nH]c(=O)oc2c1
4. CC(=O)O[C@H]1CC[C@@]2(C)C(=CC[C@@H]3[C@@H]2CC[C@]2(C)C(c4cccnc4)=CC[C@@H]32)C1 [ABIRATERONE ACETATE]
5. CC(C)(C)c1ccc(S(=O)(=O)/C=C/C#N)cc1
6. CN(c1ncccc1CNc1nc(Nc2ccc3c(c2)CC(=O)N3)ncc1C(F)(F)F)S(C)(=O)=O
7. CC1(C)CCC(C)(C)c2cc(NC(=O)c3ccc(C(=O)O)cc3)ccc21
8. COc1cc(N2CCC(N3CCN(C)CC3)CC2)ccc1Nc1ncnc(Nc2ccccc2S(=O)(=O)C(C)C)n1

RESULT:
< 5.00
< 5.00
< 5.00
< 5.00
6.03
5.41
< 5.00
< 5.00

* * *

- Test system: MV4-11
- test-method-notes: Secondary dose-response HTS, Cell Titer Glo
- Format: cell-based, human
- conditions-used: Homo sapiens; secondary high-throughput screen; MV4-11; read-out: average effective concentration, MV4-11
Assignment: determine reported EC50 for the given molecules.
I'd appreciate it if you included the unit after the number.

[[record]]
molecule = "CC1(C)CCC(CN2CCN(c3ccc(C(=O)NS(=O)(=O)c4ccc(NCC5CCOCC5)c([N+](=O)[O-])c4)c(Oc4cnc5[nH]ccc5c4)c3)CC2)=C(c2ccc(Cl)cc2)C1 [Venetoclax, reference compound]"
measured = "1 nM"

[[record]]
molecule = "O=C(O)CCCc1ccc(N(CCCl)CCCl)cc1"
measured = "8400 nM"

[[record]]
molecule = "CCc1c2c(nc3ccc(OC(=O)N4CCC(N5CCCCC5)CC4)cc13)-c1cc3c(c(=O)n1C2)COC(=O)[C@]3(O)CC"
measured = "3100 nM"


API: the following record is the query input.
QUERY: # EC50 lookup, item `COCc1c(C(C)C)nc(C(C)C)c(/C=C/[C@@H](O)C[C@@H](O)CC(=O)O)c1-c1ccc(F)cc1`
RESULT: 340 nM

* * *

- Tested on: M07e
- Parameters: species or system AML cell lines (8); Primary HTS, single concentration about 10 uM, Cell Titer Glo viability; log10 luminescence, per cent inhibition relative to cycloheximide control
- conditions-used: 72 h, relative to cycloheximide control, log10 luminescence; inhibitor
Structures can show the parent of a compound that is named as a salt.
property-measured: M07e %inh (%)
One number for each entry, in %.

Give measured M07e %inh for every item shown.
1. C[C@]12CCC(=O)C=C1CC[C@@H]1[C@@H]2C(=O)C[C@@]2(C)[C@H]1CC[C@]2(O)C(=O)CO [SJ000287023-7, CORTISONE]
2. COc1cc2ncnc(Nc3ccc(C)c(O)c3)c2cc1OC [SJ000573090-1, U13103/179/1]
3. CC1(C)O[C@@H]2C[C@H]3[C@@H]4C[C@H](F)C5=CC(=O)CC[C@]5(C)[C@H]4[C@@H](O)C[C@]3(C)[C@]2(C(=O)CO)O1 [SJ000287138-3, FLURANDRENOLIDE]
4. COCCCC/C(=N\OCCN)c1ccc(C(F)(F)F)cc1 [SJ000287487-5, FLUVOXAMINE MALEATE]

RESULT:
[-0.4313, -0.2224, -0.6056, 1.409]

Give measured M07e %inh for every item shown.
1. CCc1cc(C(N)=S)ccn1 [SJ000285764-4, ETHIONAMIDE]
2. CC1(C)O[C@@H]2C[C@H]3[C@@H]4CCC5=CC(=O)C=C[C@]5(C)[C@H]4[C@@H](O)C[C@]3(C)[C@]2(C(=O)CO)O1 [SJ000565170-1, DESONIDE]

RESULT:
[0.2673, 8.441]
